molecular target: complement protein C3 of cynomolgus monkey plasma
Please go through the items and note down their ED50 80% cynomolgus plasma (nM), C3 cleavage, C3 ELISA.
Answers are plain numbers, in nM.

In the examples that follow, each entry is paired with its recorded ED50 80% cynomolgus plasma (nM), C3 cleavage, C3 ELISA.
Q38H/I41A/D60bT/F60eK/Y60gW/F97T/ins97aE/T98G/F99L/C122S/G151H/Q175L/Q192D (protein) VVGGTDADEGEWPWQVSLHALGHGHACGASLISPNWLVSAAHCYIDTRGKRWSDPTQWTAFLGLHDQSQRSAPGVQERRLKRIISHPFFNDTEGLDYDIALLELEKPAEYSSMVRPISLPDASHVFPAGKAIWVTGWGHTQYGGTHALILQKGEIRVINQTTCENLLPQLITPRMMCVGFLSGGVDSCDGDSGGPLSSVEADGRIFQAGVVSWGDGCAQRNKPGVYTRLPLFRDWIKENTGV	136
Q38H/I41A/D60bV/F60eR/Y60gW/D96P/F97W/ins97aN/T98G/F99L/C122S/G151N/Q175L/Q192E (protein) VVGGTDADEGEWPWQVSLHALGHGHACGASLISPNWLVSAAHCYIDVRGRRWSDPTQWTAFLGLHDQSQRSAPGVQERRLKRIISHPFFNPWNGLDYDIALLELEKPAEYSSMVRPISLPDASHVFPAGKAIWVTGWGHTQYGGTNALILQKGEIRVINQTTCENLLPQLITPRMMCVGFLSGGVDSCEGDSGGPLSSVEADGRIFQAGVVSWGDGCAQRNKPGVYTRLPLFRDWIKENTGV	73
Q38H/I41S/D60bT/F60eS/Y60gW/F97D/ins97aV/T98P/F99L/C122S/G151N/Q175L/Q192D (protein) VVGGTDADEGEWPWQVSLHALGHGHSCGASLISPNWLVSAAHCYIDTRGSRWSDPTQWTAFLGLHDQSQRSAPGVQERRLKRIISHPFFNDDVPLDYDIALLELEKPAEYSSMVRPISLPDASHVFPAGKAIWVTGWGHTQYGGTNALILQKGEIRVINQTTCENLLPQLITPRMMCVGFLSGGVDSCDGDSGGPLSSVEADGRIFQAGVVSWGDGCAQRNKPGVYTRLPLFRDWIKENTGV	118

List reported ED50 80% cynomolgus plasma (nM), C3 cleavage, C3 ELISA for each of these proteins:
1. Q38H/I41S/D60bT/F60eS/Y60gW/F97D/ins97aV/T98P/F99L/C122S/G151H/Q175L/Q192E (protein) VVGGTDADEGEWPWQVSLHALGHGHSCGASLISPNWLVSAAHCYIDTRGSRWSDPTQWTAFLGLHDQSQRSAPGVQERRLKRIISHPFFNDDVPLDYDIALLELEKPAEYSSMVRPISLPDASHVFPAGKAIWVTGWGHTQYGGTHALILQKGEIRVINQTTCENLLPQLITPRMMCVGFLSGGVDSCEGDSGGPLSSVEADGRIFQAGVVSWGDGCAQRNKPGVYTRLPLFRDWIKENTGV
2. Q38H/I41S/D60bT/F60eS/Y60gW/D96K/F97D/ins97aA/T98P/F99L/C122S/G151N/Q175L/Q192D (protein) VVGGTDADEGEWPWQVSLHALGHGHSCGASLISPNWLVSAAHCYIDTRGSRWSDPTQWTAFLGLHDQSQRSAPGVQERRLKRIISHPFFNKDAPLDYDIALLELEKPAEYSSMVRPISLPDASHVFPAGKAIWVTGWGHTQYGGTNALILQKGEIRVINQTTCENLLPQLITPRMMCVGFLSGGVDSCDGDSGGPLSSVEADGRIFQAGVVSWGDGCAQRNKPGVYTRLPLFRDWIKENTGV

## Output
[76, 37]
